Tested on: α-isomaltosyl-transferring enzyme from Arthrobacter ramosus S1
Experiment: Specificity to transferring acceptor
Format: biochemical
Parameters: key: −: no saccharide transferred product was formed; ±: a saccharide-transferred product formed in an amount of less than one percent to the total sugars; +: a saccharide-transferred product was formed in an amount of over one percent but below 10% to the total sugars; ++: a saccharide-transferred product was formed in an amount of over 10% to the total sugars
Conditions: panose as saccharide donor, 10 units/g substrate, 3.2% (w/v), 30° C., pH 6.0, 24 hours
measured_attribute: Product of transferring reaction, Enzyme of Strain S1

- smiles_repr: "OC[C@H]1O[C@@H]2O[C@H]3[C@H](O)[C@@H](O)[C@@H](O[C@H]4[C@H](O)[C@@H](O)[C@@H](O[C@H]5[C@H](O)[C@@H](O)[C@@H](O[C@H]6[C@H](O)[C@@H](O)[C@@H](O[C@H]7[C@H](O)[C@@H](O)[C@@H](O[C@H]8[C@H](O)[C@@H](O)[C@@H](O[C@H]1[C@H](O)[C@H]2O)O[C@@H]8CO)O[C@@H]7CO)O[C@@H]6CO)O[C@@H]5CO)O[C@@H]4CO)O[C@@H]3CO"
  reading: "−"

###

Tested on: α-isomaltosyl-transferring enzyme from Bacillus globisporus C9
Experiment: Specificity to transferring acceptor
Assay type: biochemical
Set-up: key: −: no saccharide transferred product was formed; ±: a saccharide-transferred product formed in an amount of less than one percent to the total sugars; +: a saccharide-transferred product was formed in an amount of over one percent but below 10% to the total sugars; ++: a saccharide-transferred product was formed in an amount of over 10% to the total sugars
Settings: panose as saccharide donor, 10 units/g substrate, 3.2% (w/v), 30° C., pH 6.0, 24 hours
measured_attribute: Product of transferring reaction, Enzyme of Strain C9

- compound: "OC[C@@H](O)[C@H](O)[C@@H](O)CO"
  reading: "−"
- compound: "CC(=O)N[C@H]1C(O)O[C@H](CO)[C@@H](O)[C@@H]1O (stereo partly drawn)"
  reading: "−"

###

System: α-isomaltosyl-transferring enzyme from Bacillus globisporus N75
Test: Action on saccharides (substrates, TLC)
Format: biochemical
Set-up: key: −: there was found no substrate change before and after the enzymatic reaction; +: there were found both the reduction of substrate and the formation of cyclotetrasaccharide after the enzymatic reaction
Conditions: 2 units/g substrate, 2% (w/v) substrate, 30° C., pH 6.0, 24 hours
measured_attribute: Enzymatic action for forming cyclotetrasaccharide, Enzyme of Strain N75

Use these answered entries as a reference point.
- compound: "OC[C@H]1O[C@H](O[C@H]2[C@H](O)[C@@H](CO)OC(O)[C@@H]2O)[C@H](O)[C@@H](O)[C@@H]1O (stereo partly drawn) [Nigerose, nigerose]"
  assayed_target: "α-isomaltosyl-transferring enzyme from Bacillus globisporus N75"
  reading: "−"
- compound: "OC[C@H]1O[C@@H]2O[C@H]3[C@H](O)[C@@H](O)[C@@H](O[C@H]4[C@H](O)[C@@H](O)[C@@H](O[C@H]5[C@H](O)[C@@H](O)[C@@H](O[C@H]6[C@H](O)[C@@H](O)[C@@H](O[C@H]7[C@H](O)[C@@H](O)[C@@H](O[C@H]8[C@H](O)[C@@H](O)[C@@H](O[C@H]9[C@H](O)[C@@H](O)[C@@H](O[C@H]1[C@H](O)[C@H]2O)O[C@@H]9CO)O[C@@H]8CO)O[C@@H]7CO)O[C@@H]6CO)O[C@@H]5CO)O[C@@H]4CO)O[C@@H]3CO [γ-Cyclodextrin, γ-cyclodextrin]"
  assayed_target: "α-isomaltosyl-transferring enzyme from Bacillus globisporus N75"
  reading: "−"
- compound: "OC[C@H]1O[C@H](OC[C@H]2O[C@H](O[C@H]3[C@H](O)[C@@H](O)[C@@H](O[C@H]4[C@H](O)[C@@H](O)C(O)O[C@@H]4CO)O[C@@H]3CO)[C@H](O)[C@@H](O)[C@@H]2O)[C@H](O)[C@@H](O)[C@@H]1O (stereo partly drawn) [Isomaltosylmaltose, isomaltosylmaltose]"
  assayed_target: "α-isomaltosyl-transferring enzyme from Bacillus globisporus N75"
  reading: "+"
- compound: "OC[C@H]1O[C@H](O[C@H]2O[C@H](CO)[C@@H](O)[C@H](O)[C@H]2O)[C@H](O)[C@@H](O)[C@@H]1O [α,α-Trehalose, α,α-trehalose]"
  assayed_target: "α-isomaltosyl-transferring enzyme from Bacillus globisporus N75"
  reading: "−"
- compound: "OC[C@H]1O[C@H](O[C@H]2[C@H](O)[C@@H](O)[C@@H](OC[C@H]3OC(O)[C@H](O)[C@@H](O)[C@@H]3O)O[C@@H]2CO)[C@H](O)[C@@H](O)[C@@H]1O (stereo partly drawn) [Isopanose, isopanose]"
  assayed_target: "α-isomaltosyl-transferring enzyme from Bacillus globisporus N75"
  reading: "−"

Entry OC[C@H]1O[C@@H](O[C@H]2O[C@H](CO)[C@@H](O)[C@H](O)[C@H]2O)[C@H](O)[C@@H](O)[C@@H]1O [α,β-trehalose] , α-isomaltosyl-transferring enzyme from Bacillus globisporus N75 data, Enzymatic action for forming cyclotetrasaccharide, Enzyme of Strain N75 value: −

Entry OC[C@H]1O[C@@](CO)(O[C@H]2O[C@H](CO)[C@@H](O)[C@H](O)[C@H]2O)[C@@H](O)[C@@H]1O [Sucrose, sucrose] , α-isomaltosyl-transferring enzyme from Bacillus globisporus N75 data, Enzymatic action for forming cyclotetrasaccharide, Enzyme of Strain N75 value: −

Entry OC[C@H]1O[C@H](OC[C@H]2O[C@H](O[C@H]3[C@H](O)[C@@H](O)C(O)O[C@@H]3CO)[C@H](O)[C@@H](O)[C@@H]2O)[C@H](O)[C@@H](O)[C@@H]1O (stereo partly drawn) [Panose, panose] , α-isomaltosyl-transferring enzyme from Bacillus globisporus N75 data, Enzymatic action for forming cyclotetrasaccharide, Enzyme of Strain N75 value: +

Entry OC[C@@H](O)[C@@H](O[C@H]1O[C@H](CO)[C@@H](O)[C@H](O)[C@H]1O)[C@H](O)[C@@H](O)CO [Maltitol, maltitol] , α-isomaltosyl-transferring enzyme from Bacillus globisporus N75 data, Enzymatic action for forming cyclotetrasaccharide, Enzyme of Strain N75 value: −

###

System: α-isomaltosyl-transferring enzyme from Bacillus globisporus C9
Assay: Action on saccharides (substrates, TLC)
Format: biochemical
Design: key: −: there was found no substrate change before and after the enzymatic reaction; +: there were found both the reduction of substrate and the formation of cyclotetrasaccharide after the enzymatic reaction
Details: 2 units/g substrate, 2% (w/v) substrate, 30° C., pH 6.0, 24 hours
measured_attribute: Enzymatic action for forming cyclotetrasaccharide, Enzyme of Strain C9

- molecule: "O=C[C@H](O)[C@@H](O)[C@H](O[C@@H]1O[C@H](CO)[C@@H](O)[C@H](O)[C@H]1O)[C@H](O)CO [Cellobiose, cellobiose]"
  reading: "−"
- molecule: "OC[C@H]1O[C@H](O[C@H]2O[C@H](CO)[C@@H](O)[C@H](O)[C@H]2O)[C@H](O)[C@@H](O)[C@@H]1O [α,α-Trehalose, α,α-trehalose]"
  reading: "−"
- molecule: "OC[C@H]1O[C@H](OC[C@H]2O[C@H](OC[C@H]3OC(O)[C@H](O)[C@@H](O)[C@@H]3O)[C@H](O)[C@@H](O)[C@@H]2O)[C@H](O)[C@@H](O)[C@@H]1O (stereo partly drawn) [Isomaltotriose, isomaltotriose]"
  reading: "−"

###

Tested on: α-isomaltosyl-transferring enzyme from Bacillus globisporus N75
Assay: Action on saccharides (substrates, TLC)
Format: biochemical
Design: key: −: there was found no substrate change before and after the enzymatic reaction; +: there were found both the reduction of substrate and the formation of cyclotetrasaccharide after the enzymatic reaction
Details: 2 units/g substrate, 2% (w/v) substrate, 30° C., pH 6.0, 24 hours
measured_attribute: Enzymatic action for forming cyclotetrasaccharide, Enzyme of Strain N75

Use these answered entries as a reference point.
- molecule: "OC[C@H]1O[C@H](O[C@H]2C(O)O[C@H](CO)[C@@H](O)[C@@H]2O)[C@H](O)[C@@H](O)[C@@H]1O (stereo partly shown)"
  assayed_target: "α-isomaltosyl-transferring enzyme from Bacillus globisporus N75"
  reading: "−"
- molecule: "O=C[C@H](O)[C@@H](O)[C@H](O[C@@H]1O[C@H](CO)[C@@H](O)[C@H](O)[C@H]1O)[C@H](O)CO"
  assayed_target: "α-isomaltosyl-transferring enzyme from Bacillus globisporus N75"
  reading: "−"
- molecule: "OC[C@H]1O[C@@H]2O[C@H]3[C@H](O)[C@@H](O)[C@@H](O[C@H]4[C@H](O)[C@@H](O)[C@@H](O[C@H]5[C@H](O)[C@@H](O)[C@@H](O[C@H]6[C@H](O)[C@@H](O)[C@@H](O[C@H]7[C@H](O)[C@@H](O)[C@@H](O[C@H]8[C@H](O)[C@@H](O)[C@@H](O[C@H]1[C@H](O)[C@H]2O)O[C@@H]8CO)O[C@@H]7CO)O[C@@H]6CO)O[C@@H]5CO)O[C@@H]4CO)O[C@@H]3CO"
  assayed_target: "α-isomaltosyl-transferring enzyme from Bacillus globisporus N75"
  reading: "−"
- molecule: "OC[C@H]1O[C@H](O[C@H]2[C@H](O)[C@@H](O)[C@@H](O[C@H]3[C@H](O)[C@@H](O)[C@@H](O[C@H]4[C@H](O)[C@@H](O)C(O)O[C@@H]4CO)O[C@@H]3CO)O[C@@H]2CO)[C@H](O)[C@@H](O)[C@@H]1O (stereo partly shown)"
  assayed_target: "α-isomaltosyl-transferring enzyme from Bacillus globisporus N75"
  reading: "−"
- molecule: "OC[C@H]1O[C@H](OC[C@H]2O[C@H](OC[C@H]3OC(O)[C@H](O)[C@@H](O)[C@@H]3O)[C@H](O)[C@@H](O)[C@@H]2O)[C@H](O)[C@@H](O)[C@@H]1O (stereo partly shown)"
  assayed_target: "α-isomaltosyl-transferring enzyme from Bacillus globisporus N75"
  reading: "−"
- molecule: "OC[C@H]1O[C@@H](O[C@H]2[C@H](O)[C@@H](O)C(O)O[C@@H]2CO)[C@H](O)[C@@H](O)[C@H]1O (stereo partly shown)"
  assayed_target: "α-isomaltosyl-transferring enzyme from Bacillus globisporus N75"
  reading: "−"

The reported Enzymatic action for forming cyclotetrasaccharide, Enzyme of Strain N75 of the molecule OC[C@H]1O[C@H](OC[C@H]2OC(O)[C@H](O)[C@@H](O)[C@@H]2O)[C@H](O)[C@@H](O)[C@@H]1O (stereo partly shown) was −
